Source of measurements: patent US8859549B2

# System: KCNQ 2/3 channels (Homo sapiens, UniProt O43525+O43526)
# Construct: expressed in transfected cells; host or cells: HEK293
# Assay explanation: KCNQ 2/3 channel activation, thallium flux FLIPR assay (BTC-AM dye)
# Type: cell-based
# Condition label: HEK293 cells stably expressing human KCNQ2 and KCNQ3 subunits; thallium-induced fluorescence, 4 min compound incubation
pEC50: −log10 of the molar value.
Readout type: pEC50

Recorded results for 5 compounds are shown here.
                                   compound  readout_type  reported_measurement
0  O=C(CC1CC2CCC1C2)Nn1nc(Sc2ccc(Br)cc2)c2ccccc2c1=O (racemic) [Example 200]         pEC50                  7.63
1  CC(C)(C)C(=O)NCc1nn(NC(=O)Cc2ccc(Cl)cc2)c(=O)c2ccccc12 [Example 87]         pEC50                  5.00
2  O=C(Cc1ccccc1)Nn1nc(N2CCOCC2)c2ccccc2c1=O [Example 111]         pEC50                  4.76
3  O=C(Cc1ccc(Br)cc1)Nn1nc(S(=O)(=O)c2ccccc2)c2ccccc2c1=O [Example 206]         pEC50                  7.16
4  O=C(CC1CC2CCC1C2)Nn1nc(Oc2ccccc2)c2ccccc2c1=O (racemic) [Example 39]         pEC50                  8.04

P: N#Cc1ccc(S(=O)(=O)c2nn(NC(=O)Cc3ccc(F)cc3)c(=O)c3ccccc23)cc1 [Example 224]
Q: O=C(Cc1ccc(Cl)cc1)Nn1nc(Sc2ccc(Br)cc2)c2ccccc2c1=O [Example 195]
From the recorded data, which exceeds the other in pEC50: P or Q ? Pick one and reply with its label.
P
(P: 6.81, Q: 6.36)
